smiles.text	melting point
Cc1nc2c(-c3cccc(N4CCN(CCO)CC4)c3)cnn2c(N)c1-c1ccc(F)cc1	209 to 212 °C
CN1CCN(c2cccc(-c3cnn4c(N)c(-c5ccccc5Cl)cnc34)c2)CC1	200 to 203 °C
Cc1nc2c(-c3cccc(N4CCN(C5CCN(C)CC5)CC4)c3)cnn2c(N)c1-c1cccc(Cl)c1	180 to 185 °C
Cc1nc2c(-c3cccc(N4CCN(C)CC4)c3)cnn2c(N)c1-c1cccc(Br)c1	107 to 113 °C
Cc1nc2c(-c3cccc(N4C[C@@H](C)O[C@@H](C)C4)c3)cnn2c(N)c1-c1cccc(Cl)c1	165 to 167 °C
COc1ccc(-c2cnn3c(N)c(-c4cccc(Cl)c4)c(CF)nc23)cc1OC	228 to 230 °C
CN(C)c1ccc(-c2cnn3c(N)c(-c4ccc(NS(=O)(=O)c5cccc(Cl)c5Cl)cc4)cnc23)cc1	143 to 146 °C
CCN(CC)C1CCN(c2cccc(-c3cnn4c(N)c(-c5cccc(Cl)c5)c(C)nc34)c2)CC1	163 to 168 °C
Cc1nc2c(-c3ccc(N4CCN(C)CC4)cc3)cnn2c(N)c1-c1ccc(F)c(Cl)c1	264 to 265 °C
CN1CCN(c2ccc(-c3cnn4c(N)c(-c5ccccc5Cl)cnc34)cc2)CC1	197 to 200 °C
Cc1nc2c(-c3cccc(N4CCN(C)CC4)c3)cnn2c(N)c1-c1ccc(F)c(F)c1	216 to 219 °C
Cc1nc2c(-c3cccc(N4CCN(C)CC4)c3)cnn2c(N)c1-c1ccc(F)c(Cl)c1	224 to 226 °C
Cc1nc2c(-c3ccc(N4CCN(C)CC4)cc3)cnn2c(N)c1-c1ccc(F)cc1	289 to 291 °C
Cc1nc2c(-c3cccc(N4CCC(N5CCCC5)CC4)c3)cnn2c(N)c1-c1cccc(Cl)c1	188 to 193 °C
Cc1nc2c(-c3cccc(N4CCN(CCO)CC4)c3)cnn2c(N)c1-c1ccc(F)c(Cl)c1	104 to 107 °C
CCN(CC)C1CCN(c2cccc(-c3cnn4c(N)c(-c5ccc(F)cc5)c(C)nc34)c2)CC1	208 to 210 °C

* * *

Attribute: IC50
- study.system: c-Src kinase (Homo sapiens, UniProt P12931)
- Sequence (P12931 whole entry): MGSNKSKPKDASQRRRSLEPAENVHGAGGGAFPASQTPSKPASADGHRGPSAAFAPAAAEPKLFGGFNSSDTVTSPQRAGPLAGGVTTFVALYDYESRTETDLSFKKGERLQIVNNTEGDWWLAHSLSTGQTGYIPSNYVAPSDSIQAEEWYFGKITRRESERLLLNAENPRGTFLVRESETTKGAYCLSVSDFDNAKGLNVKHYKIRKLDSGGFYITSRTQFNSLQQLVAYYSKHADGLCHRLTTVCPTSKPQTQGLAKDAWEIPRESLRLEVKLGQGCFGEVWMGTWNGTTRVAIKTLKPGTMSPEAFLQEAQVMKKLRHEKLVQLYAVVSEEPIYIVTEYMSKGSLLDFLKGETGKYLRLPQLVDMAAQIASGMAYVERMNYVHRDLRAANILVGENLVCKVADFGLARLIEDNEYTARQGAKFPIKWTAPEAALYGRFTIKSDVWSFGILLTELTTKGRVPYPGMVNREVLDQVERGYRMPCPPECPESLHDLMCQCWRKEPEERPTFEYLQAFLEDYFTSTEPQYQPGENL
- test.method.notes: c-Src kinase inhibition
- Type: biochemical
- condition.parameters: Table 5; read-out: c-scr, IC50 class

molecule	IC50
COc1ccc(-c2cnn3c(N)c(-c4cccc(Cl)c4)c(C)nc23)cc1	< 1000 nM
Cc1nc2c(-c3cccc(N4CCN(C)CC4)c3)cnn2c(N)c1-c1ccc(F)c(F)c1	< 1000 nM
CN1CCN(c2cccc(-c3cnn4c(N)c(Cc5ccccc5)cnc34)c2)CC1	> 10000 nM
Cc1nc2c(-c3cccc([N+]4([O-])CC[N+](C)([O-])CC4)c3)cnn2c(N)c1-c1ccc(F)cc1 (stereo not shown)	< 1000 nM

* * *

Attribute: IC50
- study.system: human RET (Homo sapiens)
- Construct: fused on or other part: N-terminal GST tag (pFB-GSTX3 vector)
- Sequence (P07949 1-1072 isoform P07949-2): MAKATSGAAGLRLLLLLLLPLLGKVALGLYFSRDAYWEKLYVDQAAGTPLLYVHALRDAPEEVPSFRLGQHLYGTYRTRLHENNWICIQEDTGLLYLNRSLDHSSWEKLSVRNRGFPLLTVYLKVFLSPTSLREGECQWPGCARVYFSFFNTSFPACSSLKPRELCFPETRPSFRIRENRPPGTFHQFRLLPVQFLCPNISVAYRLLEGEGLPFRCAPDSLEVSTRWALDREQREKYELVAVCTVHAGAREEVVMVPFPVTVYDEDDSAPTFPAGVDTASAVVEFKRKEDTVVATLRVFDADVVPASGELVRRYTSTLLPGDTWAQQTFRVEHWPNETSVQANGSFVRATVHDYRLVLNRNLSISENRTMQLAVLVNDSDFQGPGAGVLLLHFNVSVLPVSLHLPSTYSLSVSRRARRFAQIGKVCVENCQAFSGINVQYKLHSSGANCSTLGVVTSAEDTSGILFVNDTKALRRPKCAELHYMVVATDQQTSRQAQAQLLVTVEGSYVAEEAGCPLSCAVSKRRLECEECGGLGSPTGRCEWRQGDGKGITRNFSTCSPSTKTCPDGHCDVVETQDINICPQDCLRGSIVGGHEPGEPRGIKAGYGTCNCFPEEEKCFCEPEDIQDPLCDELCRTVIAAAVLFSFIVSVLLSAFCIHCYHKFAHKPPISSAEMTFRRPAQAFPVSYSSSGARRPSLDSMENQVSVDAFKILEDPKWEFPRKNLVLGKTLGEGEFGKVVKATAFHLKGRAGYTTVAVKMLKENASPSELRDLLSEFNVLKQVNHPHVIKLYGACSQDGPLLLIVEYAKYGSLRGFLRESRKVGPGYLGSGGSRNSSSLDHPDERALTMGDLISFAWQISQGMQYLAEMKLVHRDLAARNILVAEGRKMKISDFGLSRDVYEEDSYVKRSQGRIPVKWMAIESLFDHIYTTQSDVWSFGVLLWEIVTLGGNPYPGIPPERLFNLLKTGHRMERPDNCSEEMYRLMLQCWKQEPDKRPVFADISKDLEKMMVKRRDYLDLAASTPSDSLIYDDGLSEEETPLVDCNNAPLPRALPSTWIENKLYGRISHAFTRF
- test.method.notes: RET kinase inhibition, GST-wtRET or GST-RET-Men2B, 33P incorporation into poly(Glu,Tyr)
- Format: biochemical
- condition.parameters: Table 4
- Method: The inhibition of RET is measured as follows: The baculovirus donor vector pFB-GSTX3 is used to generate a recombinant baculovirus that expresses the amino acid region 658-1072 (Swiss prot No. Q9BTB0) of the intra-cytoplasmic kinase domain of human RET-Men2A which corresponds to the wild-type kinase domain of RET (wtRET) and RET-Men2B, which differs from the wtRET by the activating mutation in the activation loop M918T. […]
measured.endpoint: IC50

compound	measured.endpoint	recorded.result
CN1CCN(c2cccc(-c3cnn4c(N)c(-c5ccc(O)cc5)cnc34)c2)CC1 [Example 39]	IC50	< 10 µM
Cc1nn2c(N)c(-c3cccc(O)c3)cnc2c1-c1ccc(N2CCN(C)CC2)cc1 [Example 61a]	IC50	< 10 µM
CN1CCN(c2cccc(-c3cnn4c(N)c(-c5cccc(O)c5)cnc34)c2)CC1 [Example 29]	IC50	< 10 µM
CN1CCN(c2ccc(-c3cnn4c(N)c(-c5ccc(O)cc5)cnc34)cc2)CC1 [Example 35]	IC50	< 10 µM
COc1ccccc1-c1cnn2c(N)c(-c3cccc(O)c3)cnc12 [Example 48]	IC50	< 10 µM

* * *

- study.system: human EphB4 receptor (Homo sapiens, UniProt P54760)
- Construct: made in house; host or cells: Sf9 or Sf21 (baculovirus)
- Sequence (P54760 566-987): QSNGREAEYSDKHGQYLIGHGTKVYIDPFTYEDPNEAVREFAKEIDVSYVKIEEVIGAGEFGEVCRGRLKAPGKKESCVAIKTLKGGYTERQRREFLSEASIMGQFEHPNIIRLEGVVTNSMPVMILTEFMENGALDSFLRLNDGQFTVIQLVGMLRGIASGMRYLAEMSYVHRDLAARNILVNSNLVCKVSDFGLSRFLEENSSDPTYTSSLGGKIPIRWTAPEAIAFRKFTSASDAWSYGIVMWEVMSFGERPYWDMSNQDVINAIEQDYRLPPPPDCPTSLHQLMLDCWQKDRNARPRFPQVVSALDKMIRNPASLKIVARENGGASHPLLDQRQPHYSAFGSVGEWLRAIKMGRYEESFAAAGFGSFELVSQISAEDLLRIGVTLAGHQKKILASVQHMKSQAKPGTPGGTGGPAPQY
- test.method.notes: EphB4 kinase assay, GST-EphB, 33P incorporation into poly(Glu,Tyr)
- Type: biochemical
- condition.parameters: Table 5; read-out: EphB4, IC50 class

molecule	IC50
Cc1nc2c(-c3cccc([N+]4([O-])CC[N+](C)([O-])CC4)c3)cnn2c(N)c1-c1ccc(F)cc1 (stereo not shown)	< 1000 nM
Cc1nc2c(-c3ccc(N4CCN(C)CC4)cc3)cnn2c(N)c1-c1ccc(F)c(Cl)c1	< 1000 nM
Cc1nc2c(-c3cccc(N4CCC(N5CCCC5)CC4)c3)cnn2c(N)c1-c1cccc(Cl)c1	< 1000 nM
Cc1nc2c(-c3cccc(N4CCC(N5CCCC5)CC4)c3)cnn2c(N)c1-c1ccc(F)cc1	< 1000 nM

* * *

Measured pIC50 (Tek (Homo sapiens, UniProt Q02763))
pIC50: −log10 of the molar value.

smiles.text	pIC50
Cc1nc2c(-c3cccc(N4CCN(C)CC4)c3)cnn2c(N)c1-c1cccc(Br)c1	< 5.00
CN1CCN(c2cccc(-c3cnn4c(N)c(-c5cccc(Br)c5)cnc34)c2)CC1	5.00 to 6.00
Cc1nc2c(-c3cccc(N4CCN(C)CC4)c3)cnn2c(N)c1-c1ccc(F)c(Cl)c1	< 5.00
Cc1nc2c(-c3cccc(N4CCOCC4)c3)cnn2c(N)c1-c1cccc(Cl)c1	< 5.00
Cc1nc2c(-c3cccc(N4CCN(C5CCN(C)CC5)CC4)c3)cnn2c(N)c1-c1cccc(Cl)c1	> 6.00
COc1ccc(-c2cnn3c(N)c(-c4ccc(F)c(Cl)c4)c(C)nc23)cc1OC	< 5.00
Cc1nc2c(-c3cccc(N4CCC(N5CCCC5)CC4)c3)cnn2c(N)c1-c1cccc(Cl)c1	5.00 to 6.00
Cc1nc2c(-c3cccc(N4CCN(C)CC4)c3)cnn2c(N)c1-c1ccc(F)cc1	5.00 to 6.00

* * *

Attribute: melting point

smiles.text	melting point
CN1CCN(c2cccc(-c3cnn4c(N)c(Cc5ccccc5)cnc34)c2)CC1	72 to 75 °C
Cc1nc2c(-c3cccc(N4CCN(CCO)CC4)c3)cnn2c(N)c1-c1cccc(Cl)c1	108 to 116 °C
Cc1nc2c(-c3cccc(N4CCN(C)CC4)c3)cnn2c(N)c1-c1ccc(F)cc1	204 to 206 °C
COc1ccc(-c2cnn3c(N)c(-c4ccc(F)c(Cl)c4)c(C)nc23)cc1	224 to 227 °C
COc1cc(N2CCN(C)CC2)ccc1-c1cnn2c(N)c(-c3cccc(Cl)c3)c(C)nc12	215 to 217 °C
COc1ccc(-c2cnn3c(N)c(-c4ccc(F)c(Cl)c4)c(C)nc23)cc1OC	235 to 238 °C
Cc1nc2c(-c3cccc(N4CCN(CCO)CC4)c3)cnn2c(N)c1-c1ccc(F)c(F)c1	172 to 174 °C
COc1ccc(-c2cnn3c(N)c(-c4cccc(Cl)c4)c(C)nc23)cc1OC	223 to 226 °C
CN1CCN(c2cccc(-c3cnn4c(N)c(-c5cccc(Br)c5)cnc34)c2)CC1	195.3 to 197.2 °C
COc1ccc(-c2cnn3c(N)c(-c4cccc(Cl)c4)c(C)nc23)cc1	171 to 172 °C
COc1cc(N2CCN(C)CC2)ccc1-c1cnn2c(N)c(-c3cccc(O)c3)cnc12	217 to 220 °C
COc1ccc(-c2cnn3c(N)c(-c4ccc(F)cc4)c(C)nc23)cc1	243 to 244 °C

* * *

- study.system: human Flt-3 (Homo sapiens, UniProt P36888)
- Construct: expressing the amino acid region amino acids 563-993 of the cytoplasmic kinase domain of human Flt-3; made in house; host or cells: Sf9 (baculovirus)
- Sequence (P36888 563-993): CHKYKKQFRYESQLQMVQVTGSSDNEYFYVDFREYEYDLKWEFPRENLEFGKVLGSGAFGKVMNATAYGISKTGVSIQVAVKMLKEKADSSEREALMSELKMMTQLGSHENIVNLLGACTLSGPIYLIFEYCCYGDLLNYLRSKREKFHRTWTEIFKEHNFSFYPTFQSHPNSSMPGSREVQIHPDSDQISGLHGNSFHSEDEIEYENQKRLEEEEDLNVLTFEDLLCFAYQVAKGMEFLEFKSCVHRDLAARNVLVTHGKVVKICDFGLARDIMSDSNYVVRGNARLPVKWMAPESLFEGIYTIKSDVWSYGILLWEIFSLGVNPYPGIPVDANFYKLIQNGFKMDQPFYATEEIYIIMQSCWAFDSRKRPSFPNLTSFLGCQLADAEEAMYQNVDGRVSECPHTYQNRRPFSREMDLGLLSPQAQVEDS
- test.method.notes: Flt3 kinase inhibition, GST-Flt-3, 33P incorporation into poly(Glu,Tyr)
- Format: biochemical
- condition.parameters: Table 5; read-out: Flt-3, IC50 class
- Method: The compounds to be tested are then diluted in culture medium (without FCS, with 0.1% bovine serum albumin) and added to the cells. (Controls comprise medium without test compounds). […] The lysates are then centrifuged to remove the cell nuclei, and the protein concentrations of the supernatants are determined using a commercial protein assay (BIORAD). […] The luminescence is measured in a Packard Top Count Microplate Scintillation Counter. […]
pIC50: −log10 of the molar value.
Attribute: pIC50
measured.endpoint: pIC50

smiles.text	measured.endpoint	recorded.result
CN1CCN(c2cccc(-c3cnn4c(N)c(Cc5ccccc5)cnc34)c2)CC1	pIC50	< 5.00
COc1ccc(-c2cnn3c(N)c(-c4cccc(Cl)c4)c(CF)nc23)cc1OC	pIC50	< 5.00
Cc1nc2c(-c3cccc(N4CCN(CCO)CC4)c3)cnn2c(N)c1-c1ccc(F)cc1	pIC50	< 5.00
CN1CCN(c2cccc(-c3cnn4c(N)c(-c5cccc(Br)c5)cnc34)c2)CC1	pIC50	< 5.00

Reference source: patent US20090099167A1
